All values here come from ChEMBL document CHEMBL3507680.

- experiment notes: Human HepG2 cell viability assay in 384 well format
- Type: toxicity, cell-based
- Parameters: dose 125 nL, time 70.5 hour; concentration not given beside the values
- test context: HepG2 cells, read-out: Inhibition
Reported cytotoxicity at 70.5 h by item:
attribute measured: cytotoxicity at 70.5 h (%)

COc1ccc(Cn2nc(C(N)=O)ccc2=O)c(Cl)c1	-3.77
Cc1ccc(CNC2CCCc3c2cnn3C)s1 (stereo not given)	-4.42
CN(Cc1ccccc1Cl)C(C(=O)O)c1ccc(F)c(CO)c1 (stereo not given)	-7.98
CN(Cc1ccco1)Cc1ccccc1CNC(=O)c1csnn1	-1.62
COCCNC(=O)c1nc(-c2cn(C)cn2)n2ccccc12	-7.59
CC(C)[C@H]1COC(=O)N1CC(=O)N(C)CCCn1cccn1	-4.67
Cc1nc(CN2CCO[C@@H]3CN(Cc4ccccn4)CC[C@@H]3C2)cs1	-6.11
CC(=O)N(Cc1ncc(C(C)C)o1)C1CCN(CCn2cncn2)C1 (stereo not given)	-3.83
CN(CCCNC(=O)c1ccc(C#N)cc1)CC(F)(F)F	5.13
CCN(CC)C(=O)c1c(Br)cnn1CC	-2.09
